Tested on: TNF-α production by LPS stimulated mouse peritoneal macrophages
Assay: TNF-α production inhibitory activity by LPS stimulated macrophages (ELISA)
Type: cell-based
Conditions: LPS 10 μg/ml, 8 hours
Experimental: (1) Method of Measurement of TNF-α Production Inhibitory Activity by LPS Stimulated Macrophages […] 2) E. Coli (serum type 055:B5) derived LPS was dissolved in PBS in a concentration of 1 mg/ml, then sterilized by filtration. […] The cultured supernatant was recovered from each well and the TNF-α concentration was measured by the ELISA method (Cytoscreen® Immunoassay Kit Mouse TNF-α, BioSource International).
Flag rule - IC50 less than 5 nM flags Y; the remaining entries get N.

Task: I'd appreciate it if you could check whether CC(C)(C)OC(=O)Nc1ncc(-n2cc(C(=O)Nc3ccncc3)c(=O)c3cccnc32)cn1 [Example 150] has IC50 smaller than 5 nM.
Output: N

Task: Please do the same for O=C(Nc1c(Cl)cncc1Cl)c1cn(-c2cccnc2)c2ncccc2c1=O [Example 136] as well.
Output: Y

Task: Then this molecule: O=C(NCC1CC1)c1cn(-c2ccc(F)cc2)c2ncccc2c1=O [Example 56]
Output: Y

Task: Then what about the molecule O=C(NCCc1ccncc1)c1cn(-c2ccccc2)c2ncccc2c1=O [Example 119] ?
Output: N

Task: Entry O=C(Nc1c(Cl)cncc1Cl)c1cn(-c2ccc(F)cc2)c2ncccc2c1=O [Example 106] please
Output: N

Task: And then O=C(Nc1c(Cl)cncc1Cl)c1cn(-c2ccccn2)c2ncccc2c1=O [Example 133] , what is it?
Output: Y
